- Test system: HCT-116 colon
- protocol description: NCI tumour cell line growth inhibition, 48 h
recorded metric: TGI

See these solved cases before continuing.
May I ask what TGI has been recorded for COC(=O)CNC(=O)C(CSC(=O)OCC1c2ccccc2-c2ccccc21)NC(=O)CCC(NC(=O)OCC1c2ccccc2-c2ccccc21)C(=O)OC (stereo unspecified) ?
32.5 µM

Quick one: TGI for COC(=O)C1C(=O)O[C@@H](c2ccc3c(c2)OCO3)C1C(=O)OC (mixture of isomers) ?
> 100 µM

Would you kindly share the measured TGI for O=C(NC12CC3CCC1CC(C3)C2)[C@@H]1CCCN1C(=O)OCc1ccccc1 (stereo partly specified) ?
> 100 µM

Which TGI is listed for "CCn1cc(C(=O)O)c(=O)c2cc(F)c(N3CCN(S(=O)(=O)c4cccc5ccccc45)CC3)cc21" ?
> 100 µM

For "O=C1NC(=N[C@@H](CO)c2ccccc2)S/C1=C\c1ccc2ncccc2c1" , what is its reported TGI?
> 25 µM

Now for another entry.
Fill in the blank: the reported TGI of "Cc1nc2ccccc2nc1CC(=O)C(=O)Nc1ccc(Cl)cc1Cl" is ____.
> 100 µM
